Source listed as patent US9403835B2.

target.or.test.system: muscarinic M1 receptor (Homo sapiens)
Sequence (P11229 1-460): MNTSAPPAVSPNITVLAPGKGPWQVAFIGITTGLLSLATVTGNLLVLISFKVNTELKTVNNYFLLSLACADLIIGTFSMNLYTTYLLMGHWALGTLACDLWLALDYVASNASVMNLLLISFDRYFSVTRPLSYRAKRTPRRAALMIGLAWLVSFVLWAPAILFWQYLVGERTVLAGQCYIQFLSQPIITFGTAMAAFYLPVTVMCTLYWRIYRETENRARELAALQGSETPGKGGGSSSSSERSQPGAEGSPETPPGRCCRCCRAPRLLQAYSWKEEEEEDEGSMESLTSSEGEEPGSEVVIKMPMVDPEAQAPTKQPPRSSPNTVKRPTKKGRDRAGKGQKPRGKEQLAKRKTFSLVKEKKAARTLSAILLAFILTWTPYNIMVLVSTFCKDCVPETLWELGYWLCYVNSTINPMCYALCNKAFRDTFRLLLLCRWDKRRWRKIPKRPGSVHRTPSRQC
procedure.text: M1 PAM Assay (IP-One HTRF, IP1 in M1-CHO cells with EC20 of acetylcholine)
measurement.setup: 1 hour at room temperature, IP1 readout
EC50 values by entry

compound=CCOc1ccc(F)cc1C(=O)N1Cc2nn3c(C)c(C)c(C)nc3c2C1 measurement="200 to 1000 nM"
compound=Cc1nc2c3c(nn2c(C)c1C)CN(C(=O)c1ccccc1OC(F)(F)F)C3 measurement="200 to 1000 nM"

Measured EC50 of Cc1cnc2c3c(nn2c1C)CN(C(=O)c1ccccc1OCCN(C)C)C3 : 1000 to 2000 nM

Measured EC50 of CCOc1ccccc1C(=O)N1Cc2nn3cc(Br)cnc3c2C1 : 1000 to 2000 nM

----------
target.or.test.system: muscarinic M1 receptor (Homo sapiens)
Sequence (P11229 1-460): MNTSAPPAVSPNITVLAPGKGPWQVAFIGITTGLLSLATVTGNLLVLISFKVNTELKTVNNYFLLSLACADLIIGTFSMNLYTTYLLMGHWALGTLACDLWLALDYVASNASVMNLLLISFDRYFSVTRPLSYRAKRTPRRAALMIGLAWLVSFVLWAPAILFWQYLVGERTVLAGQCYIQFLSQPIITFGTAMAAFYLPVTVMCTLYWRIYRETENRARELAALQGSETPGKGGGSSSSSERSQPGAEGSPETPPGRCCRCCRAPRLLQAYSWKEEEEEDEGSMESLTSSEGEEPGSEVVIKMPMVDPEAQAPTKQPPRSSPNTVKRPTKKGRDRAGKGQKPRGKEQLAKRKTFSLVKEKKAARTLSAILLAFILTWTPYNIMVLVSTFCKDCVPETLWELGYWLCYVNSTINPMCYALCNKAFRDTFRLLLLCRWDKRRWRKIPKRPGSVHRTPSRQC
procedure.text: M1 PAM Assay (IP-One HTRF, IP1 in M1-CHO cells with EC20 of acetylcholine)
measurement.setup: 1 hour at room temperature, IP1 readout
EC50 values by entry

Answered cases to consult:
compound=Cc1nc2c3c(nn2c(C)c1C)CN(C(=O)c1ccccc1C(F)(F)F)C3 measurement="1 to 2 µM"
compound=CCOc1ccccc1C(=O)N1Cc2nn3cc(C)c(C)nc3c2C1 measurement="1 to 2 µM"
compound=Cc1cnc2c3c(nn2c1)CN(C(=O)c1ccccc1OCCN(C)C)C3 measurement="1 to 2 µM"
compound=Cc1nc2c3c(nn2c(C)c1C)CN(C(=O)c1ccccc1OCCn1cccn1)C3 measurement="0.2 to 1 µM"
compound=CSCCOc1ccccc1C(=O)N1Cc2nn3c(C)c(Cl)c(C)nc3c2C1 measurement="0.2 to 1 µM"
compound=CCOc1ccc(Br)cc1C(=O)N1Cc2nn3c(C)c(C)c(C)nc3c2C1 measurement="1 to 2 µM"

Measured EC50 of Cc1nc2c3c(nn2c(C)c1Cl)CN(C(=O)c1ccccc1OCC(C)C)C3 : 1 to 2 µM
